Recorded pEC50, one value per entry.
System: L. donovani HU3 strain in mouse peritoneal macrophages
test.method.notes: Assay for inhibition of parasitemia of Leishmania donovani in mouse macrophages (SYBR Green nuclei count, high-content imaging)
Type: cell-based
condition.context: Leishmania donovani, Peritoneal macrophage, L. donovani in mouse peritoneal macrophages; read-out: L. donovani in Mouse Macrophages EC50
Interpret pEC50 as the negative base-10 log of the concentration measured in mol/L.

Tell us which pEC50 value is on record for `[2H]C([2H])([2H])N(c1cnc2nn(-c3cc(NC(=O)N4CC(F)C4)ccc3F)cc2c1)C([2H])([2H])[2H]`
8.22

Tell us which pEC50 value is on record for `O=C(Nc1ccc(F)c(-n2cc3cc(N4CCC4)cnc3n2)c1)N1CC(F)(F)C1`
7.64

Tell us which pEC50 value is on record for `O=C(Nc1ccc(F)c(-n2cc3cc(C4CC4)cnc3n2)c1)N1CC(F)(F)C1`
8.01

====

Tested on: L. donovani HU3 strain in mouse peritoneal macrophages
test.method.notes: Assay for inhibition of parasitemia of Leishmania donovani in mouse macrophages (SYBR Green nuclei count, high-content imaging)
Assay type: cell-based
condition.context: Leishmania donovani, Peritoneal macrophage, L. donovani in mouse peritoneal macrophages; read-out: L. donovani in Mouse Macrophages EC50
Recorded pEC50, one value per entry.
Interpret pEC50 as the negative base-10 log of the concentration measured in mol/L.

# molecular.string, measured.on, pEC50
rows = [
    ("O=C(Nc1ccc(F)c(-n2cc3cc(CC(F)(F)F)cnc3n2)c1)N1CCC1", "L. donovani HU3 strain in mouse peritoneal macrophages", 8.00),
    ("CN(C)c1cnc2nn(-c3cc(NC(=O)N4CCC4)ccc3F)cc2c1", "L. donovani HU3 strain in mouse peritoneal macrophages", 7.96),
    ("O=C(Nc1ccc(F)c(-n2cc3cc(N4CCC5(CC4)COC5)cnc3n2)c1)N1CC(F)C1", "L. donovani HU3 strain in mouse peritoneal macrophages", 8.10),
]

Tell us which pEC50 value is on record for `O=C(Nc1ccc(F)c(-n2cc3cc(N4CC5(CC5)C4)cnc3n2)c1)N1CC[C@@H](F)C1`
7.80

Tell us which pEC50 value is on record for `O=C(Nc1ccc(F)c(-n2cc3cc(N4CC(C(F)(F)F)C4)cnc3n2)c1)N1CC(F)C1`
8.40

Tell us which pEC50 value is on record for `O=C(Nc1ccc(F)c(-n2cc3cc(-c4ccc(F)cn4)cnc3n2)c1)N1CCC1`
8.70

Tell us which pEC50 value is on record for `CN(C)c1cnc2nn(-c3cc(NC(=O)N4CC(F)(F)C4)ccc3F)cc2c1`
7.96

Tell us which pEC50 value is on record for `O=C(Nc1ccc(F)c(-n2cc3cc(N4CC5(CC5)C4)cnc3n2)c1)N1CCCC1`
7.89

Tell us which pEC50 value is on record for `CC(C)CCc1cnc2nn(-c3cc(NC(=O)c4ccco4)ccc3F)cc2c1`
7.05
